# Test system: CCRF-CEM leukemia
# TEST: NCI-60 one-dose screen, 48 h
# RECORDED CONDITIONS: 10 µM unless noted
About 83,000 compounds went through this panel and 20% of them were active in at least one assay; those are over-represented in the sample as a whole. The source made the active and inactive calls. Rule for the calls: active = growth percent below 10; inactive = the rest.
Classes used: T for active, F for inactive

• Nc1ncnc2c1N=C(c1ccc(F)cc1)CC(c1sc(Cl)nc1Cl)N2 (centres undefined) = F
• C#CC[C@@H]1C[C@]2(C)[C@H]3CC=C4[C@H]5CC(C)(C)CC[C@]5(C(=O)NCCCCN)CC[C@@]4(C)[C@]3(C)CC[C@H]2C(C)(C)[C@H]1OC(C)=O = F
• C#CCNC(=S)N/N=C(\C)c1ccccn1 = F
• COc1cc(NCCCCC(C)N)c2nccc(C)c2c1 (centres undefined) = F
• O=C(Nc1ccc(Br)cc1)Nc1ccccc1Cl = F
• N=C(N)c1ccc(-c2ccc(-c3cc(Cl)cc(Cl)c3)o2)nc1 = T
• CCN(CC)c1ccc(C(=N)c2ccc(N(C)C)cc2)cc1 = F
• CN=C1C=C/C(=N/N=c2/ccn(O)cc2C)C=C1C = F
• CC(=O)c1c(O)c(C)c(O)c2c1OC1=CC(=O)/C(=C(/C)N)C(=O)C12C (centres undefined) = F
• COCCCNCC(=O)Nc1c(C)cccc1C = F
• CC(C)OC(=O)c1ccc([N+](=O)[O-])cc1 = F
• C#CC[C@@H]1C[C@]2(C)[C@H]3CC=C4[C@H]5[C@@H](C)[C@H](C)CC[C@]5(C(=O)NCCCCCCCCN)CC[C@@]4(C)[C@]3(C)CC[C@H]2C(C)(C)[C@H]1OC(C)=O = T
• COc1cc(C2CC(c3cccc(Nc4ccnc5cc(Cl)ccc45)c3)=NN2c2ccc(Cl)cc2)cc(OC)c1OC (centres undefined) = F
• COc1cc(-c2nc(-c3nc4cc(C(=O)c5ccccc5)ccc4[nH]3)cc3c2[nH]c2ccccc23)cc(OC)c1OC = F
• CC(C)(C)CC(C)(C)NCc1cc(C(C)(C)C)cc(CNC(C)(C)CC(C)(C)C)c1O = F
• COc1ccc(C2=NN(C=O)C(c3ccc(OS(=O)(=O)c4ccc(C)cc4)c(OC)c3)C2)cc1 (centres undefined) = F
• NS(=O)(=O)c1ccc(N2N=C(c3ccc(Br)cc3)CC2c2cn(-c3ccccc3)nc2-c2ccc(Cl)cc2)cc1 (centres undefined) = F
• COc1c(B(O)O)cccc1-c1nc2ccc3[nH]ncc3c2c2c1CCCC2 = T
• CCN(CC)CCNc1c(C)cc(CO)c(Cl)c1C = F
• CCCc1n(Cc2ccc3ccccc3n2)cc[n+]1Cc1ccc2ccccc2c1 = T
• O=C(O)C1[S][Sb]([CH](C(=O)O)[CH](C(=O)O)[Sb]2[S]C(C(=O)O)C(C(=O)O)[S]2)[S]C1C(=O)O (centres undefined) = F
• Cn1c(=O)c2c3c(oc2c2ccccc21)C(=O)c1ccccc1C3=O = F
• CC(C)(C)c1ccc(Cn2c(-c3nonc3N)nc3ccccc32)cc1 = F
• CCOC(=O)C1=C(C)NC(SCc2nnc(-c3ccc(Cl)cc3)o2)=NC1c1ccc(Cl)cc1 (centres undefined) = F
• c1ccc2c(c1)cnc1ccccc12 = F
• COCCOCCOCc1n(Cc2ccc3ccccc3n2)c2ccccc2[n+]1Cc1ccc2ccccc2c1 = T
• CSC1=NC(=Nc2c(C)cccc2C)C2(CCC(C(C)(C)C)CC2)N1c1ccc(Cl)cc1 (centres undefined) = F
• CCCc1n(Cc2ccc3ccccc3n2)cc[n+]1Cc1ccc2ccccc2n1 = F
• CC1=NN(c2cccc(S(N)(=O)=O)c2)C(=O)C1 = F
